- system: Syk (356-635 amino acids) catalytic domain (Homo sapiens (Human))
- run.description: Inhibition of enzymatic Syk kinase activity (radiometric)
- Format: biochemical
- test.parameters: read-out: IC50 Syk
Structures can show the parent of a compound that is named as a salt.
Listed here are compounds together with their documented IC50.

// below: answered compounds
O=C(O)CN1CCC(Oc2ccc(Nc3nc(N4CCCCCC4)nc4cn[nH]c(=O)c34)cc2)CC1 [Example 254]    < 10 nM
O=c1[nH]ncc2nc(-c3ccccc3)nc(Nc3ccc(N4CCNCC4)cc3)c12 [Example 8]    < 10 nM
CC(C)(CO)N1CCCN(c2ccc(Nc3nc(N4CCC(CC#N)CC4)nc4cn[nH]c(=O)c34)cc2)CC1 [Example 297]    < 10 nM
CC(C)N(c1nc(Nc2ccc(CN3CCNCC3)cc2)c2c(=O)[nH]ncc2n1)C(C)C [Example 54, hydrochloride]    < 10 nM
O=c1[nH]ncc2nc(N3CCCCCC3)nc(Nc3ccc(CCN4CCC(O)CC4)cc3)c12 [Example 201]    < 10 nM

query: Note down IC50 recorded for O=C(O)C1CC12CCN(c1ccc(Nc3nc(-c4ccsc4)nc4cn[nH]c(=O)c34)cc1)CC2 (centres unmarked) [Example 39]
result: < 50 nM

query: Report IC50 for O=c1[nH]ncc2nc(N3CCCCCC3)nc(Nc3ccc(N4CCC(Cc5nn[nH]n5)CC4)nc3)c12 [Example 252]
result: < 50 nM

query: Give me measured IC50, please, for this compound: CC1CCN(c2nc(Nc3ccc(N4CCC5(CC4)CC5C(=O)O)cc3)c3c(=O)[nH]ncc3n2)CC1 (centres unmarked) [Example 155]
result: < 50 nM
